Cited source: paper PMC9090415

Listed below: % inhibition Apo pol 5' values for each entry.
- EXPERIMENTAL_SYSTEM: UniProtKB Q8ILY1
- Sequence (Q8ILY1 entry or part of it): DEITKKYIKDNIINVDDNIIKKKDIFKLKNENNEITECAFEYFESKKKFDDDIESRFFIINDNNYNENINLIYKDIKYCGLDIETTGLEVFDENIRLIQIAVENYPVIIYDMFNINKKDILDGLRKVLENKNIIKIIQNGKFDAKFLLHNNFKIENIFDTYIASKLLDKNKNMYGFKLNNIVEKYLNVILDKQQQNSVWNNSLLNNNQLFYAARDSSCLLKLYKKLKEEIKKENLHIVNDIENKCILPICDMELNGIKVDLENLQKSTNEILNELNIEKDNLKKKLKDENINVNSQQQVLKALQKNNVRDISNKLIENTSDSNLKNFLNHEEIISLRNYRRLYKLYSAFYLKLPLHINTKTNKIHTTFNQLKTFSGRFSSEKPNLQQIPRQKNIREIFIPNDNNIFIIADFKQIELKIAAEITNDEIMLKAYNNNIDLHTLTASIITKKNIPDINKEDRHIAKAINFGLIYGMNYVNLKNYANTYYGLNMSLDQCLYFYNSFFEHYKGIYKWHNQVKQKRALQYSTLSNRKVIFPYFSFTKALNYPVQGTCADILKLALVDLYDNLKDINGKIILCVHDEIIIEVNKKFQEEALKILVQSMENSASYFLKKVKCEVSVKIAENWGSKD
- PROTOCOL: Fluorescence-based high-throughput DNA polymerase assay (molecular beacon), primary screen and dose-response
- Type: biochemical
- PARTICULARS: DRC-2, 5', concentration 10
Reply with just the number (in %).

{"COMPOUND": "COc1ccc2c(c1)CCc1c-2nc2ccc(Br)cc2c1C(=O)O", "VALUE_TYPE": "% inhibition Apo pol 5'", "OUTPUT_UNIT": "%", "READOUT_NUMBER": 34}
{"COMPOUND": "O=C(O)CC1=NN(c2cccc([N+](=O)[O-])c2)C(=O)C1", "VALUE_TYPE": "% inhibition Apo pol 5'", "OUTPUT_UNIT": "%", "READOUT_NUMBER": 45}
{"COMPOUND": "Cn1nc(C(=O)N2CCc3c(nc4cc(-c5ccccc5)[nH]n4c3=O)C2)c2ccccc21", "VALUE_TYPE": "% inhibition Apo pol 5'", "OUTPUT_UNIT": "%", "READOUT_NUMBER": 36}

Attention now turns to another entry.
# input API: value(readout= % inhibition Apo pol 5', system= UniProtKB Q8ILY1, query= O=C(O)C(=O)Nc1nc(-c2ccc3c(c2)OCCO3)cs1 )
# output 25

----------
- EXPERIMENTAL_SYSTEM: bacteriophage T4 DNA polymerase (Enterobacteria phage T4, UniProt P04415)
- Construct: made in house
- Sequence (P04415 1-898): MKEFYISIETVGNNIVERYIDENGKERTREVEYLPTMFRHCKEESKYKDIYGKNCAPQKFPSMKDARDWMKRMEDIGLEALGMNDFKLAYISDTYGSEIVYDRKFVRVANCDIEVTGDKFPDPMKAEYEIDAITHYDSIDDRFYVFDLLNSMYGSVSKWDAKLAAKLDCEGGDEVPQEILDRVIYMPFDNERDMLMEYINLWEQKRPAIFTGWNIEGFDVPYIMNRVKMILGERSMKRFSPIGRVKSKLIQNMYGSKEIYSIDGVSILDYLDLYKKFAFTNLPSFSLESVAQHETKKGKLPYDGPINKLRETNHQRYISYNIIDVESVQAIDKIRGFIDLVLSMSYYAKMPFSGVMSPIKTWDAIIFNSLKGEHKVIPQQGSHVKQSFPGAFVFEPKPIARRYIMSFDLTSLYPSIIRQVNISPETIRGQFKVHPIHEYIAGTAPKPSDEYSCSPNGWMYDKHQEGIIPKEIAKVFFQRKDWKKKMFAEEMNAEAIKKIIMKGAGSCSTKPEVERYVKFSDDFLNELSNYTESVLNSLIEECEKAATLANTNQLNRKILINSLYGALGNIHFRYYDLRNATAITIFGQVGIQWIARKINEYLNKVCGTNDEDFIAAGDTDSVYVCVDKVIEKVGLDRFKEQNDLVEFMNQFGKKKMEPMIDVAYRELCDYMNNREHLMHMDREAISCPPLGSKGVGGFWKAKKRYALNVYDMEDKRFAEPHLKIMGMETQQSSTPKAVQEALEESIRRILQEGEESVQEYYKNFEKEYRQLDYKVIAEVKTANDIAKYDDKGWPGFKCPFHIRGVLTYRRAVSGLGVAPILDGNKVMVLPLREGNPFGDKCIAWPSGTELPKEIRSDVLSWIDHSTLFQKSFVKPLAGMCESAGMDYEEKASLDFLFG
- PROTOCOL: Counter-screen against bacteriophage T4 DNA polymerase
- Format: biochemical
- PARTICULARS: DRC-2; read at 180'; concentration 40
VALUE_TYPE: % inhibition T4 180' 40 (%)
Lab book: enter the figure in %, no units written.

Record excerpt, results attached:
{"MOLECULE": "C#CC(C=CC)OC(=O)c1ccccc1C(=O)O (centres unmarked)", "EXPERIMENTAL_SYSTEM": "bacteriophage T4 DNA polymerase (Enterobacteria phage T4, UniProt P04415)", "READOUT_NUMBER": -0.544}
{"MOLECULE": "CCCc1ccc(Oc2coc3cc(OC)ccc3c2=O)cc1", "EXPERIMENTAL_SYSTEM": "bacteriophage T4 DNA polymerase (Enterobacteria phage T4, UniProt P04415)", "READOUT_NUMBER": -1.19}
{"MOLECULE": "N#Cc1c(O)nc(N2CCCCC2)nc1-c1ccc2c(c1)OCO2", "EXPERIMENTAL_SYSTEM": "bacteriophage T4 DNA polymerase (Enterobacteria phage T4, UniProt P04415)", "READOUT_NUMBER": -6.49}
{"MOLECULE": "CC(=O)Nc1cc(C(=O)c2cccs2)nn(-c2ccc(Cl)cc2)c1=O", "EXPERIMENTAL_SYSTEM": "bacteriophage T4 DNA polymerase (Enterobacteria phage T4, UniProt P04415)", "READOUT_NUMBER": -2.82}
{"MOLECULE": "Cn1nc(-c2nc(-c3ccccc3)no2)c2c1CCN(C(=O)Cc1cccs1)C2", "EXPERIMENTAL_SYSTEM": "bacteriophage T4 DNA polymerase (Enterobacteria phage T4, UniProt P04415)", "READOUT_NUMBER": 20}
{"MOLECULE": "O=C(CCc1csc(NC(=O)Nc2ccccc2)n1)Nc1nc2ccccc2s1", "EXPERIMENTAL_SYSTEM": "bacteriophage T4 DNA polymerase (Enterobacteria phage T4, UniProt P04415)", "READOUT_NUMBER": 2.2}
{"MOLECULE": "CC(C)CC(C(=O)O)N1C(=O)C2C3C=CC(C2C1=O)C1C(=O)N(C(CC(C)C)C(=O)O)C(=O)C31 (centres unmarked)", "EXPERIMENTAL_SYSTEM": "bacteriophage T4 DNA polymerase (Enterobacteria phage T4, UniProt P04415)", "READOUT_NUMBER": 15}
{"MOLECULE": "Cc1ccsc1Cn1c(C)ccc1C", "EXPERIMENTAL_SYSTEM": "bacteriophage T4 DNA polymerase (Enterobacteria phage T4, UniProt P04415)", "READOUT_NUMBER": 8}
{"MOLECULE": "Nc1cc(Oc2ccc(O)c(N)c2)ccc1O", "EXPERIMENTAL_SYSTEM": "bacteriophage T4 DNA polymerase (Enterobacteria phage T4, UniProt P04415)", "READOUT_NUMBER": -7.51}
{"MOLECULE": "Cc1ccc(N2CCC(NC(=O)Cc3cccs3)C2=O)cc1C (centres unmarked)", "EXPERIMENTAL_SYSTEM": "bacteriophage T4 DNA polymerase (Enterobacteria phage T4, UniProt P04415)", "READOUT_NUMBER": 28}

# input Which measured % inhibition T4 180' 40 value corresponds to Cn1nc(-c2nnc(-c3ccccc3F)o2)c2c1CCN(C(=O)c1ccccc1Cl)C2 ?
# output -2.41
